System: Serine hydrolase RBBP9 (Homo sapiens)
Assay summary: human RBBP9 inhibitors, primary screen, biochemical, fluorescence polarization, FP-Rh probe, HTS (AID 1515);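 also: plate controls were DMSO wells with RBBP9 for no effect and wells lacking RBBP9 protein for full effect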
Experimental context: recombinant RBBP9, FP-Rh probe fluorescence polarization; at 7.94 µM
Hit rate of the full screen: of about 220,000 compounds, about 440 (0.2%) were called active.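 The calls were made as follows: active = inhibition above the campaign mean of all tested compounds plus 3 SD (cut at about 14% in these data); inactive = the rest.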 The full list was thinned out, with actives kept by preference.
Log the outcome using a class from yes (active), no (inactive)

| Compound | Category |
| --- | --- |
| CCOc1ccc2[nH]c(=O)c(C(c3nnnn3CCOC)N3CCOCC3)cc2c1 (centres undefined) | yes |
| COc1ccc(C2CC(c3ccccc3)=NN2C(=O)CSc2nccc(=O)[nH]2)cc1 (centres undefined) | no |
| O=C(O)c1ccccc1-c1ccccc1C(=O)Nc1nccs1 | no |

Next, consider the following compound.
Name the outcome recorded for `Brc1cc(/C=N/n2cnnc2)oc1Br` in the assay.
no

* * *

System: Serine hydrolase RBBP9 (Homo sapiens)
Assay summary: human RBBP9 inhibitors, primary screen, biochemical, fluorescence polarization, FP-Rh probe, HTS (AID 1515)
Experimental context: recombinant RBBP9, FP-Rh probe fluorescence polarization; at 7.94 µM; stronger effect = higher value
Out of some 220,000 compounds screened, about 440 (0.2%) were called active. Shown is part of a subset that was picked to be rich in actives.
Measured metric: inhibition (%)
Numbers only, in %.

Dear colleague, could you send me inhibition for each of the items below? Thanks.
1. CC(NCc1nc2ccccc2n1C)C12CC3CC(CC(C3)C1)C2 (stereo not given)
2. Cc1ccc(CN2CCN(Cc3ccccc3-c3ccco3)CC2CCO)o1 (stereo not given)
3. Cc1ccc(C)c(S(=O)(=O)N2CCN(CC(=O)Nc3ccc([N+](=O)[O-])cc3)CC2)c1
4. Cc1ccc(NC(=O)CN2CCC(C(N)=O)CC2)cc1[N+](=O)[O-]
5. CN1CCN(CC(=O)Nc2cccc([N+](=O)[O-])c2)CC1
6. CCN(C(=O)Cc1nc(N)n[nH]1)C1(C(=O)Nc2ccccc2)CCCCC1
7. COc1ccc(CCC(=O)OCC(=O)Nc2ccc(C)c(S(=O)(=O)N(C)C)c2)cc1
8. CC1(C)CC(=O)C2=C(C1)N=C1SCCC(=O)N1C2c1ccc(C(F)(F)F)cc1 (stereo not given)

1: 1.94; 2: -3.63; 3: -5.91; 4: 28.6; 5: 7.61; 6: 4.99; 7: -1.71; 8: -1.93

Quick one: give me inhibition for each item below, same order please.
1. Cc1cc(C#N)c(SCC(N)=O)nc1-c1ccc(F)cc1
2. COc1cccc(NCCC(=O)c2cccc([N+](=O)[O-])c2)c1

1: -8.75; 2: -8.98

* * *

System: Serine hydrolase RBBP9 (Homo sapiens) (UniProt O75884)
Sequence (O75884 whole entry, looked up): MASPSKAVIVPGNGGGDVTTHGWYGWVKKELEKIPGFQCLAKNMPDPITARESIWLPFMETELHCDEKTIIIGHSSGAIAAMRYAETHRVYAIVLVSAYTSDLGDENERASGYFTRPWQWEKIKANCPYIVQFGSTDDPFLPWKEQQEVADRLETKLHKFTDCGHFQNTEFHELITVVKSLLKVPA
Assay summary: human RBBP9 inhibitors, primary screen, biochemical, fluorescence polarization, FP-Rh probe, HTS (AID 1515)
Experimental context: recombinant RBBP9, FP-Rh probe fluorescence polarization; at 7.94 µM; stronger effect = higher value
The campaign covered roughly 220,000 compounds. About 440 (0.2%) were called active. The sample holds actives, similar compounds and a random draw of the others, so the mix is not that of the screen.
I'd be grateful if you could share measured inhibition for these entries.
Answers are plain numbers, in %.

Known results for compounds:
| Smiles input | System | Value |
| --- | --- | --- |
| CC(=O)Nc1nc(C)c(-c2csc(Nc3ccc(S(N)(=O)=O)cc3)n2)s1 | Serine hydrolase RBBP9 (Homo sapiens) (UniProt O75884) | -4.68 |
| CCCc1nc2oc3c(OCC)ncnc3c2c2c1COC(C)(C)C2 | Serine hydrolase RBBP9 (Homo sapiens) (UniProt O75884) | -0.01 |

Lab note: next compound to report on.
Fill in: Serine hydrolase RBBP9 (Homo sapiens) (UniProt O75884) inhibition for `CC(C)c1ccc(Nc2nnc(SCC(=O)c3nnc(-c4ccccc4)o3)s2)cc1` = -10.9

* * *

System: Serine hydrolase RBBP9 (Homo sapiens) (UniProt O75884)
Assay summary: human RBBP9 inhibitors, primary screen, biochemical, fluorescence polarization, FP-Rh probe, HTS (AID 1515)
Experimental context: recombinant RBBP9, FP-Rh probe fluorescence polarization; at 7.94 µM
The campaign covered roughly 220,000 compounds. About 440 (0.2%) were called active.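 How the source made its calls: active means inhibition above the campaign mean of all tested compounds plus 3 SD (cut at about 14% in these data); inactive means the rest.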 For the sample, actives were picked, then their nearest neighbours and some compounds at random.
Thanks in advance; please answer with one of these: 1 for active, 0 for inactive

| Molecule | System | Category |
| --- | --- | --- |
| Cn1sc(=O)c2cc(S(=O)(=O)NC3CC3)ccc21 | Serine hydrolase RBBP9 (Homo sapiens) (UniProt O75884) | 1 |

What outcome does the record of this test show for `C=CCn1c(COc2ccccc2F)nnc1SCC(=O)N1CC(=O)Nc2ccccc21` ?
0

Please share the test call associated with `O=C(NCc1ccccn1)c1ccc2nc(-c3ccco3)c(-c3ccco3)nc2c1` .
0

* * *

System: Serine hydrolase RBBP9 (Homo sapiens)
Assay summary: human RBBP9 inhibitors, primary screen, biochemical, fluorescence polarization, FP-Rh probe, HTS (AID 1515);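 also: plate controls were DMSO wells with RBBP9 for no effect and wells lacking RBBP9 protein for full effect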
Experimental context: recombinant RBBP9, FP-Rh probe fluorescence polarization; at 7.94 µM
Among all 220,000 compounds or so, about 440 (0.2%) were called active.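 How the source made its calls: active means inhibition above the campaign mean of all tested compounds plus 3 SD (cut at about 14% in these data); inactive means the rest.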 Only a selection was taken, and actives are over-represented in it overall.
Parameter call: string, one of true (active), false (inactive)

| Compound | Category |
| --- | --- |
| CCC(=O)N1CCCc2ccccc21 | true |

I'd appreciate the recorded outcome for `Cc1cccc(C)c1Nc1c(-c2ccccc2O)nc2ncccn12` from this test.
false

// return assay outcome for `Cc1ccnc(Nc2nc3ccccc3s2)n1`
false

Which outcome was entered for the compound N#Cc1c(NC(=O)C2CC(Cl)=CCC2C(=O)O)sc2c1CCCCC2 (configuration not stated) in this test?
false

Any idea what this test logged for O=C(CCC1CCCN(Cc2ccc(O)c(Cl)c2)C1)NCc1ccccc1F (configuration not stated) ?
false

// return assay outcome for C=CS(=O)c1sc(Cl)c(N2CCOCC2)c1[N+](=O)[O-] (configuration not stated)
true

* * *

System: Serine hydrolase RBBP9 (Homo sapiens) (UniProt O75884)
Assay summary: human RBBP9 inhibitors, primary screen, biochemical, fluorescence polarization, FP-Rh probe, HTS (AID 1515);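 also: plate controls were DMSO wells with RBBP9 for no effect and wells lacking RBBP9 protein for full effect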
Experimental context: recombinant RBBP9, FP-Rh probe fluorescence polarization; at 7.94 µM; stronger effect = higher value
The whole screen tested about 220,000 compounds, of which about 440 (0.2%) were called active. Only a selection was taken, and actives are over-represented in it overall.
Measured metric: inhibition (%)
Numbers only, in %.

| Compound | Measured metric | Unit spec | Value |
| --- | --- | --- | --- |
| COc1ccccc1N1CCN(CC(=O)NCCc2ccc(S(N)(=O)=O)cc2)CC1 | inhibition | % | 0.48 |
| Cc1nc(SCC(=O)N2CC(=O)Nc3ccccc32)c2c(C)c(C)sc2n1 | inhibition | % | -7.82 |
| CC1=C(C(=O)Nc2cc(C)ccn2)C(c2cnn(C)c2)C2=C(CC(c3ccccc3)CC2=O)N1 (configuration not stated) | inhibition | % | -4.73 |
| CC(C)(C)Nc1c(N)c(=O)oc2ccccc12 | inhibition | % | -7.21 |

# return inhibition for each item in the list
1. COCCNC(=O)Nc1ccc2nc(-c3ccco3)c(-c3ccco3)nc2c1
2. Oc1cccc2ccc(/C=C/c3ccc(Br)s3)nc12

1. 17.9
2. -6.67

The recorded inhibition for `CCNC(=S)NNC(=O)C1CCN(Cc2ccccc2)CC1` is -3.59

* * *

System: Serine hydrolase RBBP9 (Homo sapiens)
Assay summary: human RBBP9 inhibitors, primary screen, biochemical, fluorescence polarization, FP-Rh probe, HTS (AID 1515);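 also: plate controls were DMSO wells with RBBP9 for no effect and wells lacking RBBP9 protein for full effect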
Experimental context: recombinant RBBP9, FP-Rh probe fluorescence polarization; at 7.94 µM
Out of some 220,000 compounds screened, about 440 (0.2%) were called active.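 The calls were made as follows: active = inhibition above the campaign mean of all tested compounds plus 3 SD (cut at about 14% in these data); inactive = the rest.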 What follows is part of a selection rich in actives, with near analogues and random picks from the rest.
Valid outcomes are listed here; reply with one: active, inactive

Example entries begin here.
| Compound | Category |
| --- | --- |
| Cc1ccc(-c2nc(C#N)c(NCCCn3ccnc3)o2)cc1 | inactive |
| Cc1ccnc(-n2sc3ccccc3c2=O)n1 | active |

Recorded test call requested for `COc1ccc2c(c1)C(C)=CC(C)(C)N2C(=O)Nc1ccccc1`
active

Which outcome was assigned to Cc1ccc(C(=O)COC(=O)CCN2C(=O)C3C4CC(C(Br)C4Br)C3C2=O)cc1 (stereo unspecified) in this test?
inactive

State the result this test recorded for CCOC(=O)c1ccc(N=C2SC(C(=O)NC)CC(=O)N2CCc2ccccc2)cc1 (stereo unspecified) .
inactive

State the result this test recorded for COc1ccc(C(=O)NN2C(=O)C3C(c4ccccc4)C=CC(c4ccccc4)C3C2=O)cc1 (stereo unspecified) .
inactive

Identify the outcome logged in this assay for the compound shown: `COc1cc(OC)cc(-c2nc(=S)n3ccsc3n2)c1`
inactive

# credit: PubChem BioAssay AID1515
